assay: Phase 1 open-label single-dose hepatic impairment PK study of ipatasertib; format: in vivo, human; conditions: human, plasma, po, 100 mg, median tmax, across all the groups; single oral 100-mg dose; Child-Pugh
Measured Metric: Tmax

For CC(C)NC[C@@H](C(=O)N1CCN(c2ncnc3c2[C@H](C)C[C@H]3O)CC1)c1ccc(Cl)cc1 [Ipatasertib] , what is its reported Tmax? 30 to 60 min

The reported numbers originate from paper PMC9303630.
